Where do these numbers come from? They come from PubChem BioAssay (NCI).

For each of the compounds below, state its GI50.
Tested on: 786-0 renal
Test: NCI tumour cell line growth inhibition, 48 h

Quick one: give measured GI50 for CCCCSc1nc(Nc2ccc(/C(C)=N/NC(N)=S)cc2)c(C#N)c(-c2ccc(F)cc2)n1
1.69 µM

Quick one: give measured GI50 for COc1ccc2ccccc2c1/C=C1\SC(=Nc2ccc(O)cc2)NC1=O
3.19 µM

Quick one: give measured GI50 for Cc1ccc(-c2cc(C(=O)N=Nc3c(O)[nH]c4ccccc34)c3ccccc3n2)cc1
2.87 µM

Quick one: give measured GI50 for COc1ccccc1[C@H]1C(C(=O)c2ccc(O)cc2)C2(N[C@@H]1c1ccccc1)C(=O)Nc1ccc(Br)cc12 (some centres undefined)
8.4 µM
